sequences and their reported Tm
Run Description: melting temperature; fluorescence melt of hairpins on a sequencing array, two-state fit, raised by 9.35 °C to match UV melts
Stated Conditions: sodium 0.088 M
// return numeric value only (unit: °C, not printed)

See these solved cases before continuing.
GTAGCCCGAAAGGGGTAC (((.(((....))).))) ... 68.5
GCGAACGAAAGTTAGCGC ((((((....)))..))) ... 55.8
GATCGGGGAAACCTGATC ((((.((....)).)))) ... 49.2

Entry GCGAGGGGAAACCCTTGC ((.((((....)))).)) ; Tm = 55.6

Briefly, Tm measured for GAAAGCGAAAGCTTGTTC ((((((....)))..))) : 36.8

---

Run Description: melting temperature; fluorescence melt of hairpins on a sequencing array, two-state fit, raised by 9.35 °C to match UV melts
Stated Conditions: sodium 0.088 M
# Tm binned as interval 1: < 40 °C; interval 2: ≥ 40 °C and < 50 °C; interval 3: ≥ 50 °C

GCGGACAGCCGC ((((....)))) ... interval 3

Please find the next sequence below.
**Query** Category of GATCCCGGCGGGATC ((((((...)))))) :
**Result** interval 3

---

Run Description: folding enthalpy; higher = less favourable; fluorescence melt of hairpins on a sequencing array, two-state fit
Stated Conditions: sodium 0.088 M
Label true when folding enthalpy is at or above -30 kcal/mol; anything below gets false.

Study these solved cases before continuing.
GACCGAGCGAAAGCTGTC (((..(((....)))))) ... true
GTCACTGGAAACAGTGAC (((((((....))))))) ... false
GCGTTACACGC ((((...)))) ... true
GCTGAGAAATCAGC (((((....))))) ... true
GCGATGGGAAACCACCGC (((.(((....))).))) ... false

**Query** Identify whether the reported folding enthalpy of the following sequence is -30 kcal/mol or greater: GATCACATCTGTGATC ((((((....))))))
**Result** false

**Query** Evaluate GCGTGTCCACGC ((((....)))) : folding enthalpy at minimum -30 kcal/mol?
**Result** false

**Query** Reported folding enthalpy at or above -30 kcal/mol? GGTGACGAAAGTCACACC ((((((....)))..)))
**Result** true

**Query** Determine whether measured folding enthalpy meets or exceeds -30 kcal/mol for GATCAGGTTGCTGATC ((((((....))))))
**Result** false

**Query** Has GTATATCGAAAGATGTAC (((.(((....))).))) a recorded folding enthalpy greater than or equal to -30 kcal/mol?
**Result** false

**Query** State whether the measured folding enthalpy reaches -30 kcal/mol, counting equality as reaching it, for GGAAGCGAAAGCTTGTCC ((((((....)))..)))
**Result** true

**Query** Is folding enthalpy for GGTCGAACGAAAGTTACC (((..(((....)))))) at or above -30 kcal/mol?
**Result** true

**Query** Hello, I need to know if GATCCCCCCTGGGATC ((((((....)))))) has measured folding enthalpy not below -30 kcal/mol. Thanks!
**Result** false

**Query** Does the sequence GAACTTGAAAAAGTTC ((((((....)))))) have recorded folding enthalpy that is -30 kcal/mol or more?
**Result** true

**Query** Is folding enthalpy at least -30 kcal/mol? Consider AAGACGAAAGTCTT (((((....)))))
**Result** true

**Query** Decide: folding enthalpy of GGTAGGGGAAACCCTACC (((((((....))))))) >= -30 kcal/mol?
**Result** false
